Molecular target: Human Neutrophil Elastase (human, UniProt P08246)
Test: enzyme inhibition assay
Each entry below carries its reported pKi.
Scale for pKi: -log10 of concentration given in mol/L; no unit attached.

binder: EPI-HNE-4 (designed binder) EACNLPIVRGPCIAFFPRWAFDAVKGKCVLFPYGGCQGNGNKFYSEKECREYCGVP
pKi: 11.30

Item: EPI-HNE-3 (designed binder) AACNLPIVRGPCIAFFPRWAFDAVKGKCVLFPYGGCQGNGNKFYSEKECREYCGVP | pKi: 11.22

Where do these numbers come from? They come from patent US20060134087A1.
